System: enzyme derived from Sphingobacterium sp. strain FERM BP-8124 (SP-Sepharose HP fraction enzyme)
Assay: Enzyme substrate specificity (11), (12): peptide production
Type: biochemical
Conditions: amides and methylamine; carboxy component 100 mM, amine component 150 mM, 0.33 units enzyme, pH 9.0, 25° C., 1.5 hours
Where a SMILES comes first, the peptide text is derived from it.
observed property: Produced peptide (Table 15-4) (mM)
# unit: mM | format: bare number

compound	Produced peptide (Table 15-4) (mM)
C[C@H](N)C(=O)N[C@@H](CCC(N)=O)C(=O)O [L-Ala-L-Gln, L-alanyl-L-glutamine] (H-Ala-Gln-OH)	0.3
CNC(=O)[C@@H](N)[C@@H](C)O [L-Thr-methylamine]	0.3

## Task Look up Produced peptide (Table 15-4): CNC(=O)CN [Gly-methylamine]
## Result 1.0

----------
System: peptide-forming enzyme (Mono S fraction enzyme)
Assay: Enzyme substrate specificity (1)-(10), (13), (14): peptide production
Type: biochemical, Empedobacter brevis
Conditions: L-amino acid methyl ester hydrochloride 100 mM, 150 mM L-glutamine, pH 9.0, 25° C., 3 hours
Where a SMILES comes first, the peptide text is derived from it.
The entries below are paired with their reported log10 of Formed peptide.
Recorded Formed peptide (log10, mM)

## Task # log10 of Formed peptide lookup, item CC[C@H](C)[C@H](N)C(=O)N[C@@H](CCC(N)=O)C(=O)O [L-Ile-L-Gln] (H-Ile-Gln-OH)
## Result 0.92

## Task Look up log10 of Formed peptide: CC(C)[C@H](N)C(=O)N[C@@H](CCC(N)=O)C(=O)O [L-Val-L-Gln] (H-Val-Gln-OH)
## Result 1.19

## Task Endpoint output: log10 of Formed peptide of NC(=O)CC[C@H](NC(=O)[C@@H](N)Cc1ccccc1)C(=O)O . Value?
## Result -0.05

## Task Param item = C[C@H](N)C(=O)N[C@@H](CCC(N)=O)C(=O)O [L-Ala-L-Gln, L-alanyl-L-glutamine] (H-Ala-Gln-OH) ; retrieve measured log10 of Formed peptide.
## Result 1.87

## Task I would be grateful if you could share the reported log10 of Formed peptide for CSCC[C@H](N)C(=O)N[C@@H](CCC(N)=O)C(=O)O [L-Met-L-Gln] (H-Met-Gln-OH) .
## Result 1.08

----------
Overview of recorded Formed peptide for various compounds
System: peptide-forming enzyme (Mono S fraction enzyme)
Assay: Enzyme substrate specificity (1)-(10), (13), (14): peptide production
Format: biochemical, Empedobacter brevis
Conditions: 100 mM L-alanine methyl ester hydrochloride, L-amino acid 150 mM, pH 9.0, 25° C., 3 hours
Where a SMILES comes first, the peptide text is derived from it.
Report the figure in mM without appending any unit label.

Some entries whose results are on file:
compound	endpoint unit	Formed peptide
C[C@H](N)C(=O)N[C@@H](Cc1cnc[nH]1)C(=O)O [L-Ala-L-His] (H-Ala-His-OH)	mM	66.9
C[C@H](N)C(=O)N[C@@H](Cc1c[nH]c2ccccc12)C(=O)O [L-Ala-L-Trp] (H-Ala-Trp-OH)	mM	53.9
C[C@H](N)C(=O)N[C@@H](CCCN=C(N)N)C(=O)O [L-Ala-L-Arg] (H-Ala-Arg-OH)	mM	88.0

## Task # lookup: Formed peptide of C[C@H](N)C(=O)N[C@@H](CCC(N)=O)C(=O)O [L-Ala-L-Gln, L-alanyl-L-glutamine] (H-Ala-Gln-OH)
## Result 79.3

## Task Endpoint output: Formed peptide of C[C@H](N)C(=O)N[C@@H](CO)C(=O)O [L-Ala-L-Ser] (H-Ala-Ser-OH) . Value?
## Result 62.5

## Task What measured Formed peptide goes with C[C@H](N)C(=O)N[C@H](C(=O)O)[C@@H](C)O [L-Ala-L-Thr] (H-Ala-Thr-OH) ?
## Result 53.9

## Task Any idea what its Formed peptide is? The compound is C[C@H](N)C(=O)N[C@@H](Cc1ccc(O)cc1)C(=O)O [L-Ala-L-Tyr] (H-Ala-Tyr-OH)
## Result 17.6

## Task Can you look up the measured Formed peptide of C[C@H](N)C(=O)N[C@@H](CCC(=O)O)C(=O)O [L-Ala-L-Glu] (H-Ala-Glu-OH) for me?
## Result 42.9

----------
Test system: enzyme derived from Sphingobacterium sp. strain FERM BP-8124 (SP-Sepharose HP fraction enzyme)
Test: Enzyme substrate specificity (11), (12): peptide production
Assay type: biochemical
Settings: carboxy component 100 mM, amine component 150 mM, 0.33 units enzyme, pH 9.0, 25° C., 1.5 hours
Where a SMILES comes first, the peptide text is derived from it.
Please use Y whenever Produced peptide (Table 15-3) is not below 20 mM, and N whenever it is.

Below are worked cases with known answers.
compound	assigned label
CSCC[C@H](N)C(=O)N[C@@H](CO)C(=O)O [L-Met-L-Ser] (H-Met-Ser-OH)	Y
CSCC[C@H](NC(=O)[C@@H](N)[C@@H](C)O)C(=O)O [L-Thr-L-Met] (H-Thr-Met-OH)	Y

## Task Please check the record NC(N)=NCCC[C@H](N)C(=O)N[C@@H](CO)C(=O)O [L-Arg-L-Ser] (H-Arg-Ser-OH) and state if its Produced peptide (Table 15-3) is at or above 20 mM.
## Result N

## Task Does the reported Produced peptide (Table 15-3) for N[C@@H](CO)C(=O)N[C@@H](Cc1ccccc1)C(=O)O fall at or above the 20 mM mark?
## Result N

## Task Can CSCC[C@H](NC(=O)[C@@H](N)CO)C(=O)O [L-Ser-L-Met] (H-Ser-Met-OH) be said to have Produced peptide (Table 15-3) at or above 20 mM?
## Result N

## Task Threshold query (Produced peptide (Table 15-3) >= 20 mM) on CSCC[C@H](N)C(=O)N[C@@H](Cc1ccccc1)C(=O)O [L-Met-L-Phe] (H-Met-Phe-OH)
## Result N

## Task State whether the measured Produced peptide (Table 15-3) reaches 20 mM, counting equality as reaching it, for NCCCC[C@H](NC(=O)CN)C(=O)O [Gly-L-Lys] (H-Gly-Lys-OH)
## Result Y

## Task Assess whether reported Produced peptide (Table 15-3) for NCC(=O)N[C@@H](CCCN=C(N)N)C(=O)O [Gly-L-Arg] (H-Gly-Arg-OH) sits at 20 mM or higher.
## Result N

## Task Determine whether this compound has Produced peptide (Table 15-3) no lower than 20 mM: CC[C@H](C)[C@H](N)C(=O)N[C@@H](CO)C(=O)O [L-Ile-L-Ser] (H-Ile-Ser-OH)
## Result N

## Task Identify whether the reported Produced peptide (Table 15-3) of the following compound is 20 mM or greater: CC(C)C[C@H](NC(=O)[C@@H](N)[C@@H](C)O)C(=O)O [L-Thr-L-Leu] (H-Thr-Leu-OH)
## Result N

## Task Determine whether this compound has Produced peptide (Table 15-3) no lower than 20 mM: N[C@@H](CO)C(=O)N[C@@H](CO)C(=O)O [L-Ser-L-Ser] (H-Ser-Ser-OH)
## Result N

## Task Could you verify whether the entry CSCC[C@H](NC(=O)[C@@H](N)C(C)C)C(=O)O [L-Val-L-Met] (H-Val-Met-OH) shows Produced peptide (Table 15-3) of no less than 20 mM?
## Result N

## Task Hello, I need to know if CC(C)[C@H](NC(=O)[C@@H](N)[C@@H](C)O)C(=O)O [L-Thr-L-Val] (H-Thr-Val-OH) has measured Produced peptide (Table 15-3) not below 20 mM. Thanks!
## Result N

## Task Assess whether reported Produced peptide (Table 15-3) for CC[C@H](C)[C@H](N)C(=O)N[C@@H](Cc1ccccc1)C(=O)O [L-Ile-L-Phe] (H-Ile-Phe-OH) sits at 20 mM or higher.
## Result N

## Task Assess whether reported Produced peptide (Table 15-3) for C[C@H](NC(=O)[C@@H](N)[C@@H](C)O)C(=O)O [L-Thr-L-Ala] (H-Thr-Ala-OH) sits at 20 mM or higher.
## Result N

----------
Test system: peptide-forming enzyme (Mono S fraction enzyme)
Assay: Enzyme substrate specificity (1)-(10), (13), (14): peptide production
Assay type: biochemical, Empedobacter brevis
Conditions: carboxy component 100 mM, amine component 150 mM, 0.1 unit enzyme, 25° C., reaction time 3 hr
Where a SMILES comes first, the peptide text is derived from it. [ ]: non-standard residue; d: D form. Tle = CC(C)(C)[C@H](N)C(=O)O; NMeA = CN[C@@H](C)C(=O)O; Aib = CC(C)(N)C(=O)O
observed property: Produced peptide (mM)
State the answer as a number, implicitly in mM.

compound	measured target	Produced peptide (mM)
CC(C)(N)C(=O)N[C@@H](CCC(N)=O)C(=O)O [H-Aib-H-Gln-OH] (H-[Aib]-Gln-OH)	peptide-forming enzyme (Mono S fraction enzyme)	18.8
CN[C@@H](C)C(=O)N[C@@H](CCC(N)=O)C(=O)O [H-N-Me-Ala-H-Gln-OH] (H-[NMeA]-Gln-OH)	peptide-forming enzyme (Mono S fraction enzyme)	0.5
C[C@H](N)C(=O)N[C@H](C(=O)O)C(C)(C)C [H-Ala-t-Leu-OH] (H-Ala-[Tle]-OH)	peptide-forming enzyme (Mono S fraction enzyme)	0.4

Here is another compound to look at.
## Task Observed Produced peptide on peptide-forming enzyme (Mono S fraction enzyme) for CC(C)(N)C(=O)N[C@@H](Cc1ccccc1)C(=O)O [H-Aib-Phe-OH] (H-[Aib]-Phe-OH) , please.
## Result 17.2
